B1: library; a variant is named by its letters at N, in order (parent)
chain: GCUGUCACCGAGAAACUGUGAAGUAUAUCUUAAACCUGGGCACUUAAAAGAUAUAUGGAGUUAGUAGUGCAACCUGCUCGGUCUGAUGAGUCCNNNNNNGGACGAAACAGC

variants of: B1; experiment: normalized RNA/DNA level without ligand (relative to sTRSVctl = 100) (log10 (% of sTRSVctl)); HEK293T; ligand: cyclic di-GMP (c-di-GMP-II aptamer); higher = less ribozyme self-cleavage, higher mRNA level; details: reporter: mCherry (pCS4076), ligand present: no
Documented normalized RNA/DNA level without ligand (log10) across a set of variants

• UACUCG = 1.77
• GGUUAG = 1.54
• UCCUAC = 1.75
• AGAUUU = 1.66
• CGGUAU = 1.35
• CACCAG = 1.74
• UAAUCC = 1.8
• GCCAAU = 1.57

Q: For the variant `CAGAGG` , what normalized RNA/DNA level without ligand (log10) is on record?
A: 1.64

Q: Thanks! And `GAUAUC` ?
A: 1.7

Q: Lookup `CAGUCA`
A: 1.41

Q: Next variant up: `AGUCAG`
A: 1.57

Q: How about `GACAUA` ?
A: 1.52
